Cited source for all entries: patent US20240124432A1

Measured pest or weed control at 250 g/ha accompanies every entry in the list below.
System: EPHHL
test name: Pre-emergence biological efficacy
Assay type: in vivo
test settings: Euphorbia heterophylla, 312 h, evaluated after 13 days, read-out: damage to plant (100=total damage to plant; 0=no damage to plant)
Numeric only. Scale: %

CCOC(=O)C1(C)CC(c2cc(-c3ccc(C)cc3Cl)c(F)cc2Cl)=NO1 (stereo not shown) [Compound 1-31]: 10
CCOC(=O)C1(C)CC(c2cc(-c3cc(C)cc(F)n3)c(F)cc2Cl)=NO1 (stereo not shown) [Compound 1-367]: 0
CCOC(=O)C1(C)CC(c2cc(-c3cnc4c(c3)OC(F)(F)O4)c(F)cc2Cl)=NO1 (stereo not shown) [Compound 1-451]: 80

Item CCOC(=O)C1(C)CC(c2cc(-c3ccc(C)nc3)c(F)cc2Cl)=NO1 (stereo not shown) [Compound 1-283] was tested on EPHHL; the reported pest or weed control at 250 g/ha is 20

---

Measured pest or weed control at 250 g/ha accompanies every entry in the list below.
Test system: LOLPE
test name: Pre-emergence biological efficacy
Format: in vivo
test settings: Lolium perenne, 312 h, evaluated after 13 days, read-out: damage to plant (100=total damage to plant; 0=no damage to plant)
Numeric only. Scale: %

Before answering, review these 10 worked examples.
CCOC(=O)C1(C)CC(c2cc(-c3ncc(Br)cc3Cl)c(F)cc2Cl)=NO1 (stereo not shown): 50
CCOC(=O)C1(C)CC(c2cc(-c3cc(Cl)ncc3OC)c(F)cc2Cl)=NO1 (stereo not shown): 0
CCOC(=O)C1(C)CC(c2cc(-c3ncc(C(F)(F)F)cc3Cl)c(F)cc2Cl)=NO1 (stereo not shown): 80
CCOC(=O)C1(C)CC(c2cc(-c3cnc4ccc(C(F)(F)F)cc4n3)c(F)cc2Cl)=NO1 (stereo not shown): 0
CCOC(=O)C1(C)CC(c2cc(-c3ccc(C)nc3)c(F)cc2Cl)=NO1 (stereo not shown): 0
CCOC(=O)C1(C)CC(c2cc(-c3cncc(OC)c3)c(F)cc2Cl)=NO1 (stereo not shown): 0
CCOC(=O)C1(C)CC(c2cc(-c3ncc(C(C)(F)F)cc3Cl)c(F)cc2Cl)=NO1 (stereo not shown): 90
CCOC(=O)C1(C)CC(c2cc(-c3ncc(F)cc3Cl)c(F)cc2Cl)=NO1 (stereo not shown): 80
CCOC(=O)C1(C)CC(c2cc(-c3ccc(C(F)(F)F)cc3Cl)c(F)cc2Cl)=NO1 (stereo not shown): 0
CCOC(=O)C1(C)CC(c2cc(-c3ncc(C(F)(F)F)cc3F)c(F)cc2Cl)=NO1 (stereo not shown): 90

Item CCOC(=O)C1(C)CC(c2cc(-c3ccc(C)nc3F)c(F)cc2Cl)=NO1 (stereo not shown) was tested on LOLPE; the reported pest or weed control at 250 g/ha is 10

Item CCOC(=O)C1(C)CC(c2cc(-c3cc(C(F)(F)F)ccn3)c(F)cc2Cl)=NO1 (stereo not shown) was tested on LOLPE; the reported pest or weed control at 250 g/ha is 10

Item CCOC(=O)C1(C)CC(c2cc(-c3ncccc3Cl)c(F)cc2Cl)=NO1 (stereo not shown) was tested on LOLPE; the reported pest or weed control at 250 g/ha is 20

Item CCOC(=O)C1(C)CC(c2cc(-c3cnc(Cl)c(Cl)c3)c(F)cc2Cl)=NO1 (stereo not shown) was tested on LOLPE; the reported pest or weed control at 250 g/ha is 0

Item CCOC(=O)C1(C)CC(c2cc(-c3cnc(C(F)(F)F)cn3)c(F)cc2Cl)=NO1 (stereo not shown) was tested on LOLPE; the reported pest or weed control at 250 g/ha is 20

Item CCOC(=O)C1(C)CC(c2cc(-c3ccc(OC)nn3)c(F)cc2Cl)=NO1 (stereo not shown) was tested on LOLPE; the reported pest or weed control at 250 g/ha is 0
